Data origin: patent US10544152B2

test target: 5-HT2CR (Homo sapiens (Human), UniProt P28335)
Sequence (P28335 33-458): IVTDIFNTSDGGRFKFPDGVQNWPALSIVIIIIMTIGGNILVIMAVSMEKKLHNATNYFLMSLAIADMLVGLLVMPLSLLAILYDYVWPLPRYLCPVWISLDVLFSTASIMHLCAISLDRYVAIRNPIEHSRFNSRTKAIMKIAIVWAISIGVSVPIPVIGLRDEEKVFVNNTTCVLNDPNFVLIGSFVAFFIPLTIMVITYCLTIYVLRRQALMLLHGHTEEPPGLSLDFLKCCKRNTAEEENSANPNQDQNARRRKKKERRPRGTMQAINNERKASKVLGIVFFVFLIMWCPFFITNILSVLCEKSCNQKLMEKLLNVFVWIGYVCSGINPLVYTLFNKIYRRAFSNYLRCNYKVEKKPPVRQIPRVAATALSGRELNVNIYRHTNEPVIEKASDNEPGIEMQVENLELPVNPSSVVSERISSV
protocol details: Intracellular calcium (Cai++) release assay, FLIPR Calcium 4, U2OS cells stably expressing 5-HT2CR
Type: cell-based
setup conditions: Cai++ release, U2OS cell line stably expressing human 5-HT2CR; mean ± SEM, at least three independent experiments
Field: EC50. Provide a value for each of the compounds that follow.
# number then unit; no other words

Known EC50 results, listed for orientation:
Lookup: EC50 / 5-HT2CR (Homo sapiens (Human), UniProt P28335) / COc1cc2c3c(c1)[C@H]1CCC[C@H]1N3CCNC2 (racemic) [Compound 17] 1480 nM

Could you do the same for COc1ccc2c3c1[C@@H]1CCC[C@@H]1N3CCNC2 (stereo in doubt) [Compound 37] , please? 72.4 nM

Please answer likewise for OCCc1c[nH]c2ccc(O)cc12 [Compound 27, reference compound] 0.33 nM

Moving on to the next compound.
Hi! What's the reported EC50 for Oc1ccc2c3c1[C@H]1CCC[C@H]1N3CCNC2 (racemic) [Compound 35] on 5-HT2CR (Homo sapiens (Human), UniProt P28335)? 119 nM

====

test target: 5-HT2CR (Homo sapiens (Human))
protocol details: Intracellular calcium (Cai++) release assay, FLIPR Calcium 4, U2OS cells stably expressing 5-HT2CR
Assay type: cell-based
setup conditions: Cai++ release, U2OS cell line stably expressing human 5-HT2CR; mean ± SEM, at least three independent experiments
Cut-off 50 nM on EC50: below means Fulfilled, at or above means Not fulfilled.

Example entries begin here.
I'd appreciate it if you could check whether COc1ccc2c3c1C1CCCC1N3CCNC2 (racemic) has EC50 smaller than 50 nM. Fulfilled

Again, but for COc1ccc2c3c1[C@H]1CCC[C@H]1N3CCNC2 (racemic) Fulfilled

C#CCOCCOCCOCCOc1ccc2c3c1C1CCCC1N3CCNC2 (centres unmarked) ? Not fulfilled

Next:
Please indicate whether the reported EC50 of C#CCOCCOc1ccc2c3c1C1CCCC1N3CCNC2 (racemic) is strictly below 50 nM. Not fulfilled

Cool, now C#CCOCCOCCOc1ccc2c3c1C1CCCC1N3CCNC2 (racemic) Not fulfilled

====

Exercise: for every item that follows, state its recorded Emax.
test target: 5-HT2CR (Homo sapiens (Human), UniProt P28335)
protocol details: Intracellular calcium (Cai++) release assay, FLIPR Calcium 4, U2OS cells stably expressing 5-HT2CR
Format: cell-based
setup conditions: % Cai++ release obtained with 1 μM of WAY163909 (1); U2OS cells expressing human 5-HT2CR
One number for each entry, in %.

// solved cases for Emax follow
API: value(readout= Emax, system= 5-HT2CR (Homo sapiens (Human), UniProt P28335), query= c1cc2c3c(c1)[C@H]1CCC[C@H]1N3CCNC2 (racemic) [Compound 1, reference compound] ) 100

Would you kindly repeat that for COc1ccc2c3c1C1CCCC1N3CCNC2 (racemic) ? 103

Next compound up: COc1ccc2c3c1[C@H]1CCC[C@H]1N3CCNC2 (racemic) 105

Provide each entry's Emax from the list below.
1. C#CCOCCOCCOCCOc1ccc2c3c1C1CCCC1N3CCNC2 (stereo not shown)
2. C#CCOCCOCCOc1ccc2c3c1C1CCCC1N3CCNC2 (racemic)
3. COc1cc2c3c(c1)[C@H]1CCC[C@H]1N3CCNC2 (racemic)
4. OCCc1c[nH]c2ccc(O)cc12 [Compound 27, reference compound]
5. Oc1ccc2c3c1[C@H]1CCC[C@H]1N3CCNC2 (racemic)
6. COc1ccc2c3c1[C@@H]1CCC[C@@H]1N3CCNC2 (stereo in doubt)

1: 95.2; 2: 99.3; 3: 95.9; 4: 100; 5: 95.9; 6: 97.6

# query: Emax | item C#CCOCCOc1ccc2c3c1C1CCCC1N3CCNC2 (racemic) | system: 5-HT2CR (Homo sapiens (Human), UniProt P28335) 97.2
